- Test system: PC-3
- experiment: NCI tumour cell line growth inhibition, 48 h
The source made the active and inactive calls. Cut-off read from the data, not from the text of the source: active = GI50 up to about 1.1 µM and inactive = higher.
quantity_measured: GI50

COc1cccc2c1C(=O)c1c(O)c3c(c(O)c1C2=O)C[C@@](O)(C(C)=O)C[C@@H]3OC1CC(O)C(O)C(C)O1 (stereo partly drawn)	4.95 µM (inactive)
O=C1CCCC2=C(N1)C(=O)C=CC2=O	16.1 µM (inactive)
Oc1c(C(O)(c2ccccc2)c2ccc3ccccc3c2O)ccc2ccccc12	8.26 µM (inactive)
CC(=O)c1c(C)n(C)c2c1nnc1ccccc12	59.3 µM (inactive)
CCOC(=O)C(NC(=O)CC(C)C)(N1CCN(c2cc3c(cc2F)c(=O)c(C(=O)O)cn3C2CC2)CC1)C(F)(F)F (stereo not drawn)	15 µM (inactive)

Here are 3 compounds. What values of GI50 were reported for them?
1. COC(=O)C1CCC(=O)N1C(c1ccccc1)c1ccc(OC)c(OC)c1 (stereo not drawn)
2. O=C(Cn1c2ccc(Br)cc2c2nc3ccccc3nc21)NCc1ccccc1
3. O=C(NNC(=O)c1ccncc1)C(=O)Nc1cc(Cl)c(Cl)cc1Cl

Response:
["> 100 µM (inactive)", "> 100 µM (inactive)", "> 100 µM (inactive)"]

* * *

What GI50 was measured for each of the following?
- Test system: OVCAR-3
- experiment: NCI tumour cell line growth inhibition, 48 h
Activity calls are given as the source filed them. Rule as the data show it: active = GI50 up to about 1.1 µM and inactive = higher.

CSc1ccc(/C=C2/C[N+](C)(C)C/C(=C/c3ccc(SC)cc3)C2=O)cc1	15.9 µM (inactive)
COc1ccc(Nc2c[nH]c(=O)[nH]c2=O)cc1	> 100 µM (inactive)
CC(=O)Nc1ccc(S(=O)(=O)/N=c2/sc(S(N)(=O)=O)nn2C)cc1	> 100 µM (inactive)
O=C(O)c1cc(=O)c2cc(C(=O)c3cccs3)c(Cl)c(Cl)c2o1	> 100 µM (inactive)
CCCC(=O)N(C(=O)CCC)C1=C(Cl)C(=O)c2ccccc2C1=O	3.21 µM (inactive)

From here, focus on the item given below.
Entry CC(=O)ON(OC(C)=O)c1ccc(C)cc1 ; GI50 = > 100 µM (inactive)

* * *

- Tested on: MDA-N
- experiment: NCI tumour cell line growth inhibition, 48 h
Calls of active or inactive are those of the source. Rule as the data show it: active = GI50 up to about 1.1 µM and inactive = higher.
Pick from y (active), n (inactive) when you respond.

The examples below pair each entry with its known result.
O=C1O/C(=C(\Br)c2ccc([N+](=O)[O-])cc2)c2ccccc21	n
COc1ccc(-c2c3ccccc3c(-c3ccc(OCCBr)cc3)c3ccccc23)cc1	n

Request: How did this test come out for N#Cc1[nH]c(=O)n(-c2ccc([N+](=O)[O-])cc2)c1N ?
Response: n

Request: How did this test come out for O=C1c2ccccc2C2=Nc3ccncc3CN12 ?
Response: n

* * *

- Tested on: SK-MEL-2
- experiment: NCI tumour cell line growth inhibition, 48 h
Active and inactive are the calls of the source. Cut-off read from the data, not from the text of the source: active = GI50 up to about 1.1 µM and inactive = higher.
Pick from 1 (active), 0 (inactive) when you respond.

The examples below pair each entry with its known result.
Oc1c(C(O)(c2ccccc2)c2ccc3ccccc3c2O)ccc2ccccc12	0
COc1cc2c3c(c4cc(OC)c(OC)cc4c2cc1OC)[C@H](O)[C@@H]1CCCN1C3	1
CCC[C@@H]1C(=O)N=C(N)N1C(=O)OCc1ccccc1	0

Request: How did this test come out for FC(F)(F)c1cccnc1Sc1nc2ccccc2s1 ?
Response: 0

Request: How did this test come out for CCCCCCCCCCCCc1ccsc1-c1ccc(-c2ccc(-c3sccc3CCCCCCCCCCCC)s2)s1 ?
Response: 0

Request: How did this test come out for O=C1C2=Cc3ccccc3CCN2c2ccccc21 ?
Response: 0

* * *

- Test system: K562
- experiment: NCI tumour cell line growth inhibition, 48 h
Activity calls are given as the source filed them. Cut-off read from the data, not from the text of the source: active = GI50 up to about 1.1 µM and inactive = higher.
Pick from active, inactive when you respond.

The examples below pair each entry with its known result.
CN(CCCNC(=O)c1nn(-c2ccc(Cl)cc2Cl)c2c1ccc1ccccc12)CCCNC(=O)c1nn(-c2ccc(Cl)cc2Cl)c2c1ccc1ccccc12	active
COc1cccc(/C=C/c2ccnc3ccccc23)c1OC	inactive
COCCN1C2=CCCCC2=Nc2c(N)nc(N)nc21	inactive
CC(C)(C)c1ccc(C(O)(c2ccc(C(C)(C)C)cc2)c2ccc(C(C)(C)C)cc2)cc1	inactive

Request: How did this test come out for Cl/C(=N\c1cccc2ccccc12)N(c1ccccc1)c1ccccc1 ?
Response: inactive

Request: How did this test come out for COC(=O)c1cccc(OC)c1C#Cc1c(OC)cccc1OC ?
Response: inactive

Request: How did this test come out for Cc1cc(S(=O)(=O)Nc2nc3ccccc3c(=O)n2N)c(S)cc1Cl ?
Response: inactive

Request: How did this test come out for CC(C)c1cccc(C(C)C)c1NC(=O)C(=O)Cc1nc2ccc([N+](=O)[O-])cc2nc1O ?
Response: inactive

Request: How did this test come out for Cc1ccc(NC(=O)S(N)(c2ccc(C)cc2)[N+](=O)[O-])cc1 (stereo unspecified) ?
Response: inactive

Request: How did this test come out for C=CCc1ccccc1C1CC2(C(=O)OC)OC1C(C(=O)OC)=C2C(=O)OC (stereo unspecified) ?
Response: inactive

* * *

- Test system: HCC 2998
- experiment: NCI tumour cell line growth inhibition, 48 h
The source made the active and inactive calls. No stated cut-off is given here; in the data, active = GI50 up to about 1.1 µM and inactive = higher.
quantity_measured: GI50

C=CCC(C(=O)O)c1ccccc1 (stereo not given)	> 100 µM (inactive)

Here are 4 compounds. What values of GI50 were reported for them?
1. Cn1c2n/c(=N\c3ccc(Cl)cc3)[n+]3ccc4ccccc4c3c-2c([O-])n1-c1ccccc1
2. O=C(c1ccc(Cl)cc1Cl)N(/N=C/C=C/c1ccccc1)c1nnc(-c2ccccc2)c(-c2ccccc2)n1
3. COC(=O)c1c(O)ccc2c1c1c(n2CCc2ccccc2)C(=O)c2ccccc2C1=O
4. CCOC(=O)C1=C(C)NC(C)=C(C(=O)OCCNC(=O)c2ccc(N=[N+]=[N-])cc2)C1c1ccccc1C(F)(F)F (stereo not given)

Response:
["> 100 µM (inactive)", "> 100 µM (inactive)", "2.48 µM (inactive)", "13.2 µM (inactive)"]

* * *

- Tested on: SK-MEL-2
- experiment: NCI tumour cell line growth inhibition, 48 h
Active and inactive are the calls of the source. Cut-off read from the data, not from the text of the source: active = GI50 up to about 1.1 µM and inactive = higher.
quantity_measured: GI50

The cases that follow already have their GI50 on record.
O=[N+]([O-])C(/C=C(\Cl)[N+](=O)[O-])=C(Nc1ccccc1)Nc1ccccc1	16.4 µM (inactive)
Brc1ccccc1-c1ncc(-c2ccccc2)o1	27.3 µM (inactive)
Cc1oc2c(c1C)S(=O)(=O)C(C#N)=CN2	> 100 µM (inactive)

Here are 3 compounds. What values of GI50 were reported for them?
1. O=C1/C(=C/c2ccc(Cl)cc2)N=C(c2ccccc2)N1c1ccc(S(=O)(=O)Nc2nccs2)cc1
2. COCC[N+](CCNC(=O)c1cccc2c(N)c3cccc(C)c3nc12)(CCOC)Cc1ccc([N+](=O)[O-])cc1
3. COc1cc(/C=C2\C[C@H]3[C@@H]4CC=C5C=C(N6CCCC6)CC[C@]5(C)[C@H]4CC[C@]3(C)C2=O)cc(OC)c1OC

Response:
1: 16 µM (inactive); 2: 28.8 µM (inactive); 3: 3.18 µM (inactive)

Here are 3 compounds. What values of GI50 were reported for them?
1. CN(C)C(=C1c2cc([N+](=O)[O-])ccc2-c2ccc([N+](=O)[O-])cc21)N(C)C
2. O=C1CSC(c2ccccc2[N+](=O)[O-])N1c1ccc(-n2c(-c3ccccc3)nc3ccccc3c2=O)cc1 (stereo unspecified)
3. O=C(c1ccccc1)C1C(c2ccccc2)N1S(=O)(=O)c1ccccc1 (stereo unspecified)

Response:
1. > 100 µM (inactive)
2. 55.8 µM (inactive)
3. > 100 µM (inactive)

Here are 8 compounds. What values of GI50 were reported for them?
1. Clc1nc2c(N3CCCC3)nc(N3CCNCC3)nc2[nH]1
2. O=C(c1ccc(Cl)cc1Cl)N(/N=C/C=C/c1ccccc1)c1nnc(-c2ccccc2)c(-c2ccccc2)n1
3. COc1ccc(COCC(Cn2ccnc2)OCc2ccc(C(=O)O)cc2)cc1 (stereo unspecified)
4. Cc1ccc2c(c1)NC(=O)CCSSCCC(=O)N2
5. COc1c(C)c(OCC=C(C)C)cc(CO)c1CO
6. CNC(=O)c1nn[nH]c1O
7. C[C@]12CCCC(=O)C1(O)C[C@H](C(=O)O)CC2 (stereo partly specified)
8. CCOP(=O)(OCC)c1cc(-c2ccccc2)ccc1N

Response:
1: 18.4 µM (inactive); 2: > 100 µM (inactive); 3: > 100 µM (inactive); 4: > 100 µM (inactive); 5: 71.4 µM (inactive); 6: > 100 µM (inactive); 7: > 100 µM (inactive); 8: > 100 µM (inactive)

Here are 4 compounds. What values of GI50 were reported for them?
1. COc1c(C)c(C/C=C(\C)CCCCO)c(OC)c2ccccc12
2. O=c1[nH]/c(=C/c2ccc(OCc3ccccc3)cn2)c(=O)[nH]/c1=C/c1ccc(F)cc1
3. COC(=O)n1c(C)c(C=O)c2ccc(OC)cc21
4. CC(C)(C)c1cc(CCC(=O)Nc2ccc(Cl)cc2Cl)nc(N)n1

Response:
83.6 µM (inactive)
7.35 µM (inactive)
33.2 µM (inactive)
> 100 µM (inactive)
